The reported measurements were obtained from patent US7612075B2.

melting point: recorded values
Structures can show the parent of a compound that is named as a salt.

What does the record list as melting point for N=C(N)c1ccc(CN2CCC(Cc3nc4ccc(Cl)cc4[nH]3)CC2=O)cc1 (stereo not drawn) (as salt: salt) ? 105 to 110 °C

What does the record list as melting point for C[C@H]1CN(Cc2ccc3c(N)ncnc3c2)C(=O)[C@H](C)N1S(=O)(=O)c1cc2ccc(Cl)cc2s1 ? 224 to 226 °C

What does the record list as melting point for N=C(N)c1ccc(CN2CCN(Cc3nc4ccc(Cl)cc4[nH]3)CC2=O)cc1 (as salt: salt) ? 91 to 95 °C

What does the record list as melting point for Nc1ncnc2cc(CN3CCC(Cc4nc5ccc(Cl)cc5[nH]4)CC3=O)ccc12 (stereo not drawn) ? 128 to 132 °C

What does the record list as melting point for Nc1n[nH]c2cc(CN3CCN(S(=O)(=O)c4cc5ccc(Cl)cc5s4)CC3=O)ccc12 ? 274 to 276 °C

What does the record list as melting point for C[C@H]1CN(Cc2ccc3c(N)ncnc3c2)C(=O)[C@H](C)N1C(=O)C=Cc1ccc(Cl)s1 (as salt: salt) ? 116 to 120 °C

What does the record list as melting point for C[C@H]1CN(Cc2ccc3c(N)ncnc3c2)C(=O)[C@H](C)N1S(=O)(=O)C=Cc1ccc(Cl)s1 ? 218 to 221 °C

What does the record list as melting point for Nc1n[nH]c2cc(CN3CCN(Cc4cc5ccc(Cl)cc5s4)CC3=O)ccc12 ? 246 to 248 °C

What does the record list as melting point for C[C@@H]1CN(Cc2ccc3c(N)ncnc3c2)C(=O)[C@H](C)N1CC=Cc1ccc(Cl)s1 (as salt: trifluoroacetic acid salt) ? 67 to 70 °C
